System: Staphylococcus aureus
PROTOCOL: Antimicrobial activity against Staphylococcus aureus Smith by micro broth dilution or agar based method
Assay type: functional
ASSAY SETUP: Staphylococcus aureus, Smith; read-out: MIC
Property: log10 of MIC; scope: individual compounds
Please keep in mind that the values are log10 of MIC expressed in µg/mL.

Check out these entries, answers already filled in.
COc1cc(C)c2ncc(F)c(CCC34CCC(NCc5ccc6c(n5)NC(=O)CO6)(CC3)CO4)c2n1 : -1.80
COc1ccc2nc(N3CCN(C)CC3)c(F)c(CCC34CCC(NCc5ccc6c(n5)NC(=O)CO6)(CC3)CO4)c2n1 : 1.51
COc1ccc2ncc(C)c(CCC34CCC(NCc5ccc6c(n5)NC(=O)CO6)(CC3)CO4)c2n1 : -1.22

Ask | Fill in: log10 of MIC of COc1nc2c(CCC34CCC(NCc5ccc6c(n5)NC(=O)CO6)(CC3)CO4)ccnc2cc1F is ___
Reply | -0.90

Ask | Would you mind doing COc1cc2nccc(CCC34CCC(NCc5ccc6c(n5)NC(=O)CO6)(CC3)CO4)c2nc1OC as well?
Reply | 0.30

Ask | Would you mind doing COc1ccc2ncc(S(C)(=O)=O)c(CCC34CCC(NCc5ccc6c(n5)NC(=O)CO6)(CC3)CO4)c2n1 as well?
Reply | -0.60

Ask | Would you mind doing CN(C)c1nc2c(CCC34CCC(NCc5ccc6c(n5)NC(=O)CO6)(CC3)CO4)ccnc2cc1F as well?
Reply | 0.00

Ask | Would you mind doing COc1cc(OC)c2nccc(CCC34CCC(NCc5ccc6c(n5)NC(=O)CO6)(CC3)CO4)c2n1 as well?
Reply | -0.30

Ask | Would you mind doing COc1ccc2nccc(CCC34CCC(NCc5ccc6c(n5)NC(=O)CO6)(CC3)CO4)c2n1 as well?
Reply | -1.51

Ask | Would you mind doing CN(C)c1ccc2ncc(F)c(CCC34CCC(NCc5ccc6c(n5)NC(=O)CO6)(CC3)CO4)c2n1 as well?
Reply | -0.60

Ask | Would you mind doing Cc1nc2c(CCC34CCC(NCc5ccc6c(n5)NC(=O)CO6)(CC3)CO4)ccnc2cc1C#N as well?
Reply | 1.20

Ask | Would you mind doing N#Cc1ccc2ncc(F)c(CCC34CCC(NCc5ccc6c(n5)NC(=O)CO6)(CC3)CO4)c2n1 as well?
Reply | -1.20

Ask | Would you mind doing O=C1COc2ccc(CNC34CCC(CCc5c(F)cnc6cccnc56)(CC3)OC4)nc2N1 as well?
Reply | -0.30

Ask | Would you mind doing COc1ccc2ncc(OC)c(CCC34CCC(NCc5ccc6c(n5)NC(=O)CO6)(CC3)CO4)c2n1 as well?
Reply | -0.90

---

MEASURED TARGET: Voltage-gated inwardly rectifying potassium channel KCNH2 (Homo sapiens, UniProt Q12809)
Sequence (Q12809 whole entry): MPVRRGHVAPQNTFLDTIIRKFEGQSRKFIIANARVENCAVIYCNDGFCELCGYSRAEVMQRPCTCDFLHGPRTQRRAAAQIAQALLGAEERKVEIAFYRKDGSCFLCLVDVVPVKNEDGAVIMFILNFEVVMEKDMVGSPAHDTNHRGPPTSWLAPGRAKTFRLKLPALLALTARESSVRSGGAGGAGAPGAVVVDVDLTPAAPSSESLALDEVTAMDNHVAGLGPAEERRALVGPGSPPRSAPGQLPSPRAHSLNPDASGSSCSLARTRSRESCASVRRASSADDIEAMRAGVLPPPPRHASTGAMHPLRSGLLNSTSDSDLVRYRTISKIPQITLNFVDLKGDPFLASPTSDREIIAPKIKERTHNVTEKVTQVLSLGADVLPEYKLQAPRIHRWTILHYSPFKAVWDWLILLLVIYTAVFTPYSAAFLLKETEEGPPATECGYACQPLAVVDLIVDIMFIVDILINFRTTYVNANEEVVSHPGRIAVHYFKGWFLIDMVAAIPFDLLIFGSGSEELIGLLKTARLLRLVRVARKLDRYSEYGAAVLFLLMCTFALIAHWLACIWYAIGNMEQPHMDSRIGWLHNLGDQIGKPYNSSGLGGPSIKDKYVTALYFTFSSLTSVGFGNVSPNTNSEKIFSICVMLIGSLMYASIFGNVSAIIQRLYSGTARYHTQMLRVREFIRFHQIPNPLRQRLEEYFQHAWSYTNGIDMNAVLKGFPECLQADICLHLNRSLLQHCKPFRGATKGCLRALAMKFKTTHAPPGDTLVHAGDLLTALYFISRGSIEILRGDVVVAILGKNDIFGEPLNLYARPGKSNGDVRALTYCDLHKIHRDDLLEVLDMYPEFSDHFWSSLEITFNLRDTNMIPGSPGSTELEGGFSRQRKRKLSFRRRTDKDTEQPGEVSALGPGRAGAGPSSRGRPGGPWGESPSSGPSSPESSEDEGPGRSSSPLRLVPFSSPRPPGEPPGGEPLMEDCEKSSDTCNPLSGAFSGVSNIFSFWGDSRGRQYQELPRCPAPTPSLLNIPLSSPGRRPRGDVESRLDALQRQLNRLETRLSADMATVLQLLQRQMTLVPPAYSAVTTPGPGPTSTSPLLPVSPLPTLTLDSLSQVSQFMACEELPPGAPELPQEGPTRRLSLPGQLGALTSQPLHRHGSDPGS
PROTOCOL: Inhibition of MK499 binding to human ERG
Property: IC50; scope: individual compounds
// units = µM; emit number, no label

Ask | Fill in: IC50 of Cc1cc(S(C)(=O)=O)nc2c(CCC34CCC(NCc5ccc6c(n5)NC(=O)CO6)(CC3)CO4)c(F)cnc12 is ___
Reply | 12.4

Ask | Would you mind doing CCOC(=O)c1c(OC)cnc2c(CCC34CCC(NCc5ccc6c(n5)NC(=O)CO6)(CC3)CO4)ccnc12 as well?
Reply | 7.87

Ask | Would you mind doing O=C1COc2ccc(CNC34CCC(CCc5c(F)cnc6ccc(N7CCOCC7)nc56)(CC3)OC4)nc2N1 as well?
Reply | 11.5
